Listed below: C24 Mean values for each entry.
- Experimental details: Pharmacokinetics of released PEGylated protease inhibitor following P.O. administration of prodrugs in rats
- Format: in vivo, male Sprague-Dawley rats
- Design: unit not given here
- Assay setup: concentration at 24 hours; mPEG5-atazanavir in plasma after PO administration of mPEG5-ATV or of the listed prodrug, rats (n = 4-5)
Reply with the value as a number alone.

Some entries whose results are on file:
Req: Name the reported C24 Mean value associated with the compound COCCOCCOCCOCCOCCOC(=O)NC(C(=O)NC(Cc1ccccc1)C(CN(Cc1ccc(-c2ccccn2)cc1)NC(=O)C(NC(=O)OC)C(C)(C)C)OC(=O)CNC(=O)C(N)CC(C)C)C(C)(C)C.Cl (stereo not drawn) [Leu-Gly-mPEG5-Atazanavir HCl, Leu-Gly-mPEG5-Atazanavir Hydrochloride]
Resp: 18.1

Req: Another compound to check: COCCOCCOCCOCCOCCOC(=O)N[C@H](C(=O)N[C@@H](Cc1ccccc1)[C@H](CN(Cc1ccc(-c2ccccn2)cc1)NC(=O)[C@@H](NC(=O)OC)C(C)(C)C)OC(=O)[C@H](CC(C)C)NC(=O)[C@@H](N)CC(C)C)C(C)(C)C.Cl [Leu-Leu-mPEG5-Atazanavir HCl, Leu-Leu-mPEG5-Atazanavir Hydrochloride]
Resp: 2.98

We now examine a further compound.
Req: Name the reported C24 Mean value associated with the compound COCCOCCOCCOCCOCCOC(=O)NC(C(=O)NC(Cc1ccccc1)C(CN(Cc1ccc(-c2ccccn2)cc1)NC(=O)C(NC(=O)OC)C(C)(C)C)OC(=O)CNC(=O)C(N)Cc1ccccc1)C(C)(C)C.Cl (stereo not drawn) [Phe-Gly-mPEG5-Atazanavir HCl, Phe-Gly-mPEG5-Atazanavir Hydrochloride]
Resp: 0.169

---

Listed below: Cmax values for each entry.
- Experimental details: Pharmacokinetics of PEGylated protease inhibitor prodrugs in rats
- Type: in vivo, male Sprague-Dawley rats
- Assay setup: prodrug in plasma, mean ± SD
I only need the number, in ng/mL, no unit after it.

Req: Name the reported Cmax value associated with the molecule COCCOCCOCCOCCOCCOC(=O)N[C@H](C(=O)N[C@@H](Cc1ccccc1)[C@H](CN(Cc1ccc(-c2ccccn2)cc1)NC(=O)[C@@H](NC(=O)OC)C(C)(C)C)OC(=O)[C@H](Cc1ccccc1)NC(=O)[C@@H](N)Cc1ccccc1)C(C)(C)C.Cl [Phe-Phe-mPEG5-Atazanavir HCl, Phe-Phe-mPEG5-atazanavir hydrochloride]
Resp: 17.9

We now examine a further molecule.
Req: Name the reported Cmax value associated with the molecule COCCOCCOCCOC(=O)N[C@H](C(=O)N[C@@H](Cc1ccccc1)[C@H](CN(Cc1ccc(-c2ccccn2)cc1)NC(=O)[C@@H](NC(=O)OC)C(C)(C)C)OCOC)C(C)(C)C [mPEG3-Atazanavir-methyl methyl ether, mPEG3-Atazanavir Methyl Methyl Ether]
Resp: 1680

---

- Experimental details: Pharmacokinetics of released PEGylated protease inhibitor following P.O. administration of prodrugs in rats
- Type: in vivo, male Sprague-Dawley rats
- Set-up: concentration or dose not given beside the values
- Assay setup: mPEG3-atazanavir in plasma after PO administration of mPEG3-ATV or of the listed prodrug, rats (n = 4-5)
Listed below: AUCall Mean values for each entry.
I only need the number, in ng·h/mL, no unit after it.

Some entries whose results are on file:
Req: Name the reported AUCall Mean value associated with the compound COCCOCCOCCOC(=O)N[C@H](C(=O)N[C@@H](Cc1ccccc1)[C@H](CN(Cc1ccc(-c2ccccn2)cc1)NC(=O)[C@@H](NC(=O)OC)C(C)(C)C)OCOCCOC)C(C)(C)C
Resp: 4.10

Req: Another compound to check: CCOCO[C@@H](CN(Cc1ccc(-c2ccccn2)cc1)NC(=O)[C@@H](NC(=O)OC)C(C)(C)C)[C@H](Cc1ccccc1)NC(=O)[C@@H](NC(=O)OCCOCCOCCOC)C(C)(C)C
Resp: 822

Req: Another compound to check: COCCOCCOCCOC(=O)NC(C(=O)NC(Cc1ccccc1)C(CN(Cc1ccc(-c2ccccn2)cc1)NC(=O)C(NC(=O)OC)C(C)(C)C)OC(=O)C(N)C(C)C)C(C)(C)C.Cl [mPEG3-ATV-L-valine, mPEG3-Atazanavir-L-valine HCl]
Resp: 70.4

We now examine a further compound.
Req: Name the reported AUCall Mean value associated with the compound COCCOCCOCCOC(=O)NC(C(=O)NC(Cc1ccccc1)C(CN(Cc1ccc(-c2ccccn2)cc1)NC(=O)C(NC(=O)OC)C(C)(C)C)OC(=O)COCCOC(=O)C(N)CC(C)C)C(C)(C)C.Cl (stereo not shown) [mPEG3-Atazanavir-CME-Leucine HCl, mPEG3-Atazanavir-CME-Leucine]
Resp: 85.9
